# TESTED ON: Sialyltransferase ST3Gal-I (Rattus norvegicus, UniProt Q6H8N0)
# Sequence (Q6H8N0 whole entry): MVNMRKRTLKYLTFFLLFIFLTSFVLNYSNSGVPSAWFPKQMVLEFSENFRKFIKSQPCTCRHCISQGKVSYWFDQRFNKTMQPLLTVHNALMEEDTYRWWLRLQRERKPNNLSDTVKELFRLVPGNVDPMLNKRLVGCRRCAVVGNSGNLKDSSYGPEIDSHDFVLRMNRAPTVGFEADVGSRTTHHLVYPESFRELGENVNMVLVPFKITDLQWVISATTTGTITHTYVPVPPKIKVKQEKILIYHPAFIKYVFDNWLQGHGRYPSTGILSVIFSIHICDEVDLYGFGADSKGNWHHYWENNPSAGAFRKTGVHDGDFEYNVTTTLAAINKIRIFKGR
pIC50: −log10 of the molar value.
Below, each entry is listed alongside its reported pIC50.

>  <COMPOUND>
C[C@H](CCC(=O)O)[C@H]1CC[C@H]2[C@@H]3[C@@H](O)C[C@@H]4C[C@H](O)CC[C@]4(C)[C@H]3CC[C@]12C [URSODIOL]

>  <pIC50>
< 3.30

$$$$
>  <COMPOUND>
C[C@H](CCC(=O)O)[C@H]1CC[C@H]2[C@@H]3[C@H](O)C[C@@H]4C[C@H](O)CC[C@]4(C)[C@H]3CC[C@]12C [CHENODIOL]

>  <pIC50>
< 3.30

$$$$
>  <COMPOUND>
C[C@H](CCCOS(=O)(=O)O)[C@H]1CC[C@H]2[C@@H]3CC[C@@H]4C[C@H](O)CC[C@]4(C)[C@H]3CC[C@]12C

>  <pIC50>
< 3.00

$$$$
